Data provenance: patent US20260125378A2

molecular target: Full length DGKζ (in-house protein M1-V929) (Homo sapiens, UniProt Q13574); construct: His (N); TEV site (N); assay: Biochemical DGK IC50 assay (ADP-Glo, lipid micelle substrate), DGKζ; details: 1 hour preincubation, 1 hour reaction, room temperature
Sequence (Q13574 1-929 isoform Q13574-4): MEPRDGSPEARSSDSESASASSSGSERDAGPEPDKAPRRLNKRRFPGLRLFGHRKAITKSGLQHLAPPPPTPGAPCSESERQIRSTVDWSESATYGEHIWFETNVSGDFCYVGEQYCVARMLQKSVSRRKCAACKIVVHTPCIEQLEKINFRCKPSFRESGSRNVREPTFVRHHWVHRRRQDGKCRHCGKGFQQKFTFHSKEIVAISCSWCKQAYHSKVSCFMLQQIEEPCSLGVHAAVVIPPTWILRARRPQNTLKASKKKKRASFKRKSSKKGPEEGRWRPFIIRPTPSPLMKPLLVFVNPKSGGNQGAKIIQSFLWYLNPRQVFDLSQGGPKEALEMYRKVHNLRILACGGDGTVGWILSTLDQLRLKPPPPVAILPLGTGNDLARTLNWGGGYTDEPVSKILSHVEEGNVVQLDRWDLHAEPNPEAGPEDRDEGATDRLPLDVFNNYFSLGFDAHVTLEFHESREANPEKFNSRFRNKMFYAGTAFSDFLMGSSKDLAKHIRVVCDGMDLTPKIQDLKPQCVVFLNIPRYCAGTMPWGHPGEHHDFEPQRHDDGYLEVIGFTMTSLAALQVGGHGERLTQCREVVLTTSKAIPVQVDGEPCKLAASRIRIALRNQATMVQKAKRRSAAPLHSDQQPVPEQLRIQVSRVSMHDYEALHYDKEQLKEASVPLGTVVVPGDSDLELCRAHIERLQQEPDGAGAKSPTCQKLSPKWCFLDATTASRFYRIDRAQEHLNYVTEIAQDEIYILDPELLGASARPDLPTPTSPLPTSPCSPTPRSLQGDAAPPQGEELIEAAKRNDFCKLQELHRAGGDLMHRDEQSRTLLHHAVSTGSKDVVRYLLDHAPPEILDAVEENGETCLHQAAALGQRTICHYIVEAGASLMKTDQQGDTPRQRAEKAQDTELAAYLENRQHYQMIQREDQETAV
Below, each entry is listed alongside its reported IC50.
measurement.name: IC50 (nM)

molecule	target.or.system	readout.number
CC(c1ccc2nccnc2c1)N1C[C@H](C)N(c2cc(=O)n(C)c3sc(CC#N)nc23)C[C@H]1C (single isomer, unassigned) [Compound A194b]	Full length DGKζ (in-house protein M1-V929) (Homo sapiens, UniProt Q13574)	873
CCn1c(CC#N)nc2c(N3C[C@@H](C)N(C(C)c4ccc5c(c4)OC(C)(C)C5=O)C[C@@H]3C)nc(=O)n(C)c21 (stereo partly drawn)	Full length DGKζ (in-house protein M1-V929) (Homo sapiens, UniProt Q13574)	6
CC[C@H]1CN(C(C)c2ccc3c(c2)OC(C)(C)CO3)[C@H](CC)CN1c1nc(=O)n(C)c2c1nc(CC#N)n2C (single isomer, unassigned) [Compound A64a]	Full length DGKζ (in-house protein M1-V929) (Homo sapiens, UniProt Q13574)	0.88
CCn1c(CC#N)nc2c(N3C[C@@H](C)N(C(C)c4ccc5c(n4)OC(C)(C)CO5)C[C@@H]3C)nc(=O)n(C)c21 (stereo partly drawn) [Compound A74]	Full length DGKζ (in-house protein M1-V929) (Homo sapiens, UniProt Q13574)	45
CC[C@H]1CN(C(C)c2ccc3c(c2)OC(C)(C)CO3)[C@H](CC)CN1c1nc(=O)n(C)c2c1nc(CC#N)n2C (single isomer, unassigned) [Compound A64b]	Full length DGKζ (in-house protein M1-V929) (Homo sapiens, UniProt Q13574)	14
Cc1ccc(C(C)N2C[C@H](C)N(c3nc(=O)n(C)c4c3nc(CC#N)n4C)C[C@H]2C)c(C(F)(F)F)c1 (single isomer, unassigned) [Compound A32b]	Full length DGKζ (in-house protein M1-V929) (Homo sapiens, UniProt Q13574)	138
CCn1c(CC#N)nc2c(N3C[C@@H](C)N(C(C)c4cc(F)c5c(c4)OC(C)(C)O5)C[C@@H]3C)nc(=O)n(C)c21 (single isomer, unassigned) [Compound A173b]	Full length DGKζ (in-house protein M1-V929) (Homo sapiens, UniProt Q13574)	412
CCc1nc2cc(C(C)N3C[C@H](C)N(c4nc(=O)n(C)c5c4nc(CC#N)n5CC)C[C@H]3C)ccc2s1 (single isomer, unassigned) [Compound A95a]	Full length DGKζ (in-house protein M1-V929) (Homo sapiens, UniProt Q13574)	11
CCn1c(CC#N)nc2c(N3C[C@@H](C)N(C(C)c4cc(F)c5c(n4)OC(C)(C)CO5)C[C@@H]3C)nc(=O)n(C)c21 (single isomer, unassigned) [Compound A163b]	Full length DGKζ (in-house protein M1-V929) (Homo sapiens, UniProt Q13574)	2070
Cc1cnc2ccc(C(C)N3C[C@H](C)N(c4c(F)c(=O)n(C)c5c4nc(CC#N)n5C)C[C@H]3C)cc2n1 (single isomer, unassigned) [Compound A23b]	Full length DGKζ (in-house protein M1-V929) (Homo sapiens, UniProt Q13574)	94
CCn1c(CC#N)nc2c(N3C[C@@H](C)N(C(C)c4ccnc(-c5ccccc5)c4)C[C@@H]3C)nc(=O)n(C)c21 (stereo partly drawn)	Full length DGKζ (in-house protein M1-V929) (Homo sapiens, UniProt Q13574)	60
CCn1c(CC#N)nc2c(N3C[C@@H](C)N(C(C)c4ccc5c(c4F)OC(C)(C)O5)C[C@@H]3C)c(F)c(=O)n(C)c21 (mixture of isomers) [Compound A190]	Full length DGKζ (in-house protein M1-V929) (Homo sapiens, UniProt Q13574)	13
CCn1c(CC#N)nc2c(N3C[C@@H](C)N(C(C)c4ccc5nc(C)sc5c4)C[C@@H]3C)nc(=O)n(C)c21 (single isomer, unassigned) [Compound A56a]	Full length DGKζ (in-house protein M1-V929) (Homo sapiens, UniProt Q13574)	810
CCn1c(CC#N)nc2c(N3C[C@@H](C)N(C(C)c4cccc(C(C)C)n4)C[C@@H]3C)nc(=O)n(C)c21 (stereo partly drawn)	Full length DGKζ (in-house protein M1-V929) (Homo sapiens, UniProt Q13574)	49
CCn1c(CC#N)nc2c(N3C[C@@H](C)N(C(C)c4ccc5c(c4)OC(C)(C)CO5)C[C@@H]3C)nc(=O)n(CC)c21 (stereo partly drawn)	Full length DGKζ (in-house protein M1-V929) (Homo sapiens, UniProt Q13574)	279
